Study target: T1, Rad4-Rad23 delta-beta-hairpin2 (<130>) (UniProt P14736;P32628 101-514+528-632;1-77+230-398, internal_change;internal_change)
T1 sequence 1: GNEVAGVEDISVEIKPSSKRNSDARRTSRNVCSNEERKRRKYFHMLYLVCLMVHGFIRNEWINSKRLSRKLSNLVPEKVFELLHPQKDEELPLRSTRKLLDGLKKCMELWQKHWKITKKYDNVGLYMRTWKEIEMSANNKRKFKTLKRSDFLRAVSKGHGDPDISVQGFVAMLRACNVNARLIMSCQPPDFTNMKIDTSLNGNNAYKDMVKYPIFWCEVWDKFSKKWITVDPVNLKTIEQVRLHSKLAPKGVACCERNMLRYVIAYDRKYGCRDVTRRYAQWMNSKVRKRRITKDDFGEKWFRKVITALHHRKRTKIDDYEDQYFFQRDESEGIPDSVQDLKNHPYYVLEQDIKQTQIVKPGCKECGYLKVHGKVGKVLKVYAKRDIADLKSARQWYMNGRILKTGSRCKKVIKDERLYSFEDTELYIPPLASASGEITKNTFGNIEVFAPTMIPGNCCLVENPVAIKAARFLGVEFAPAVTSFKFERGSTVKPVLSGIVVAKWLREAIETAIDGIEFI
T1 sequence 2: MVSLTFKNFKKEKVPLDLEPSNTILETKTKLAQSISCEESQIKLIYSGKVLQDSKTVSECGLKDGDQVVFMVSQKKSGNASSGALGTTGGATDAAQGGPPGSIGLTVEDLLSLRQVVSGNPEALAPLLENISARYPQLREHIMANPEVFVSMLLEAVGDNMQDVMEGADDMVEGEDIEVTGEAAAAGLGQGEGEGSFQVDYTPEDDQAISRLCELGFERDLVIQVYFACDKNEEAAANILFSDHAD
Protocol description: competitive EMSA; apparent Ks; 1000 nM cold CH7_NX competitor; EMSA: 5 mM BTP-HCl pH 6.8, 75 mM NaCl, 5 mM DTT, 5% glycerol, 0.74 mM CHAPS, 500 ug/ml BSA, room temperature 20 min, 5 nM labeled DNA, 1000 nM cold CH7_NX
Run parameters: protein: recombinant; tags: N-terminal His tag on Rad4; copies: 1;1; label: 32P; 3-bp CCC/CCC mismatch; 5' overhang 1 nt at both ends
Readout label: Kd

Query: What value of Kd has been recorded for this entry: CCC/CCC mismatched (CH10_NX) (dsDNA) DNA 1: TTGACTCGACATCCCCCGCTACAA DNA 2: ATTGTAGCCCCGGATGTCGAGTCA
Response: ~260 nM
